Catalogue of molecules with associated pIC50
Target: PCSK9 (Homo sapiens (Human), UniProt Q8NBP7)
Sequence (Q8NBP7 153-692): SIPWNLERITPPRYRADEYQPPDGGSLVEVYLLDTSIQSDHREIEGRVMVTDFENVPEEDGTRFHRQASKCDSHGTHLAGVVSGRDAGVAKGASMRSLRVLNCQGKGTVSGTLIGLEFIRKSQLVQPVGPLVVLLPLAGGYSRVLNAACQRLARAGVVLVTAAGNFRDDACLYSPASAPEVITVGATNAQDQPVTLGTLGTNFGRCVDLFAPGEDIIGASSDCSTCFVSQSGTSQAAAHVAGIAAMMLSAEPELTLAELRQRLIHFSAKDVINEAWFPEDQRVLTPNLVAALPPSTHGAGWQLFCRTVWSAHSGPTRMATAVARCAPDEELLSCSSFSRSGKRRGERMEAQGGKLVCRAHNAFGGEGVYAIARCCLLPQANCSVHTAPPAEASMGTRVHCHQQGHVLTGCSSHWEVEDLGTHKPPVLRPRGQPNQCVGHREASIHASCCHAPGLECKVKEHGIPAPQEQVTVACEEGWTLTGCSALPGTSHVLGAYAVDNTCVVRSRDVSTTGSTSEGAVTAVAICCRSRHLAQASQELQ
Test: PCSK9 Alexa FRET Standard assay (displacement of AlexaFluor647 tagged cyclic peptide Reagent A)
Format: binding
Details: PCSK9 Alexa FRET Standard assay, 0.5 nM PCSK9, 20 nM AF cyclic peptide Reagent A; read-out: IC50
pIC50: −log10 of the molar value. Positions of bridges follow the written chain, without caps; N, C: chain ends. Non-standard residues stand in square brackets, D forms with d. Residues, ends and D or L forms follow the SMILES beside them. Phe(4-COOH) = N[C@@H](Cc1ccc(C(=O)O)cc1)C(=O)O; Trp(5-F) = N[C@@H](Cc1c[nH]c2ccc(F)cc12)C(=O)O; Trp(6-F) = N[C@@H](Cc1c[nH]c2cc(F)ccc12)C(=O)O; Pro(cis-4-F) = O=C(O)[C@@H]1C[C@H](F)CN1; aThr = C[C@H](O)[C@H](N)C(=O)O; αMeP = C[C@@]1(C(=O)O)CCCN1; Ahx = NCCCCCC(=O)O

[ask] Give its pIC50 value. Item: C[C@@]12CCCN1C(=O)[C@H](Cc1ccc(O)cc1)NC(=O)CN1C(=O)[C@@H](CCc3ccccc31)NC(=O)[C@H](Cc1c[nH]c3ccc(F)cc13)NC(=O)[C@H](Cc1c[nH]c3ccc(F)cc13)NC(=O)CNC(=O)[C@H](CCCCN)NC(=O)CCSCc1cccc(c1)CSC[C@@H](C(N)=O)NC2=O [Compound 109]
[reply] 7.00 to 9.96

[ask] Given COc1ccc(C[C@@H]2NC(=O)[C@H]([C@H](C)O)NC(=O)[C@@H]3C[C@H](F)CN3C(=O)[C@H](Cc3c[nH]c4cc(F)ccc34)NC(=O)[C@H](Cc3c[nH]c4ccc(F)cc34)NC(=O)[C@@H](C)NC(=O)CCCCCNC(=O)c3ccc(cc3)C[C@@H](C(N)=O)NC(=O)[C@]3(C)CCCN3C2=O)cc1 [Compound 057] ([Ahx][dA][Trp(5-F)][Trp(6-F)][Pro(cis-4-F)][aThr]Y(Me)[αMeP][Phe(4-COOH)]-NH2; lactam N-9) , state its recorded pIC50.
[reply] 4.30 to 4.68
